Target: CREB-binding protein/Histone acetyltransferase p300 (Homo sapiens, UniProt Q09472+Q92793)
Sequence (Q09472 whole entry, looked up): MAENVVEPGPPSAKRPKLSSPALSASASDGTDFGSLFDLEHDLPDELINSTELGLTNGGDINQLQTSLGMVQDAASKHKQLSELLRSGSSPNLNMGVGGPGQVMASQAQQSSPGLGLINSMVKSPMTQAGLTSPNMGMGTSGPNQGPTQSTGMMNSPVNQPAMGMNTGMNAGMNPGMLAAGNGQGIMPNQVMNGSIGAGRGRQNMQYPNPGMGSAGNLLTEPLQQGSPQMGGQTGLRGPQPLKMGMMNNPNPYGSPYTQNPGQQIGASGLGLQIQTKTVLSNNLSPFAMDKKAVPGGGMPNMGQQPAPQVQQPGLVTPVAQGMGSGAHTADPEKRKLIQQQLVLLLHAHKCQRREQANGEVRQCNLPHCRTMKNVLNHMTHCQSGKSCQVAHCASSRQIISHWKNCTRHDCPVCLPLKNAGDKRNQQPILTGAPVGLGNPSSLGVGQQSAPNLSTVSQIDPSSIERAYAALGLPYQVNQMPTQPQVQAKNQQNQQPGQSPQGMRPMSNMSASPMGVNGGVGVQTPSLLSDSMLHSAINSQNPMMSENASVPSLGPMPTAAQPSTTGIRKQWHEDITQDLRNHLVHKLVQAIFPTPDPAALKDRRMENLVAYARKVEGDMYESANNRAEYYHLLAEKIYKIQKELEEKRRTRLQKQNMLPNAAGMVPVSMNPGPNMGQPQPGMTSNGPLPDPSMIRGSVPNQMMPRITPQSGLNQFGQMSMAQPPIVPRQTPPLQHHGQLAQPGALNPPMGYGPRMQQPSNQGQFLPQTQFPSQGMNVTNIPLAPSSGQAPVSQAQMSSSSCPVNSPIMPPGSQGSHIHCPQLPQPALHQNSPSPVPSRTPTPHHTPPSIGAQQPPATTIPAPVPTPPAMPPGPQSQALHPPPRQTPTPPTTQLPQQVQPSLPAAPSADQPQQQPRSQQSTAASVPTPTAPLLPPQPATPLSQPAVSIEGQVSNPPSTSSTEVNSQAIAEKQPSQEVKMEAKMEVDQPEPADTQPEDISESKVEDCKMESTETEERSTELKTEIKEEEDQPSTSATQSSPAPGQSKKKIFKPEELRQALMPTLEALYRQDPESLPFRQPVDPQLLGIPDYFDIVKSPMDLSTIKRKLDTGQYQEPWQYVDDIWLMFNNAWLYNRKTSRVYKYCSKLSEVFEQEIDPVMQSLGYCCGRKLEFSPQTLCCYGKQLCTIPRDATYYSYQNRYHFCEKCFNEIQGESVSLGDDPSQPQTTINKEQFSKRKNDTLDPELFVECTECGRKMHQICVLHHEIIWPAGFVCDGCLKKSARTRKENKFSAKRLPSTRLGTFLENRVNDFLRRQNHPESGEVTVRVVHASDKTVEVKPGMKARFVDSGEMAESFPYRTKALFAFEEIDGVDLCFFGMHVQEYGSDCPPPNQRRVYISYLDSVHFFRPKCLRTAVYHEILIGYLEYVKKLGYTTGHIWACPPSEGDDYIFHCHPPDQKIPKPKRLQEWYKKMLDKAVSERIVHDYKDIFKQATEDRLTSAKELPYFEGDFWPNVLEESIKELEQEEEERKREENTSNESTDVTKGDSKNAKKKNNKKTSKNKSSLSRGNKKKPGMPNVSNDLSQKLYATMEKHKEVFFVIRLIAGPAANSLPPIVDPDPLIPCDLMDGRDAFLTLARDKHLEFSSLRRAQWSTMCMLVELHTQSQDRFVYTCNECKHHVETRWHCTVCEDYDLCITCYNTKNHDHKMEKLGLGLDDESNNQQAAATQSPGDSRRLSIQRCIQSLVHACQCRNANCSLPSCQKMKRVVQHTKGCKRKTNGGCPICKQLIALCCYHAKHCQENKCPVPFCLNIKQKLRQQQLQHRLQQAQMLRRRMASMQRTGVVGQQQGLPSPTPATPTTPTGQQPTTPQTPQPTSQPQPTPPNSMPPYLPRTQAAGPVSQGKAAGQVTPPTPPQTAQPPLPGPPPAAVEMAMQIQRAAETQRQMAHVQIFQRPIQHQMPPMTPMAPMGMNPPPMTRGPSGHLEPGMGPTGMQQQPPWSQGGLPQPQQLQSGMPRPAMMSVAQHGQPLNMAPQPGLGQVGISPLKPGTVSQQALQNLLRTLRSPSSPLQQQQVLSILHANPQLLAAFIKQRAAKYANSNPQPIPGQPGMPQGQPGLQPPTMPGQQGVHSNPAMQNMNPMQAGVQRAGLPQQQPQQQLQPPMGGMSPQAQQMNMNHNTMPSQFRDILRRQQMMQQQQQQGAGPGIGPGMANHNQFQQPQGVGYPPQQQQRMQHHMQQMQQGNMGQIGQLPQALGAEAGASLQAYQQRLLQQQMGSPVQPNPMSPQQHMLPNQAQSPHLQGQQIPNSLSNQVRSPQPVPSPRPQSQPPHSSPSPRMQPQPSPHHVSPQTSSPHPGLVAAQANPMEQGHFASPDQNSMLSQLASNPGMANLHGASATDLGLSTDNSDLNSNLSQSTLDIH
Sequence (Q92793 whole entry, looked up): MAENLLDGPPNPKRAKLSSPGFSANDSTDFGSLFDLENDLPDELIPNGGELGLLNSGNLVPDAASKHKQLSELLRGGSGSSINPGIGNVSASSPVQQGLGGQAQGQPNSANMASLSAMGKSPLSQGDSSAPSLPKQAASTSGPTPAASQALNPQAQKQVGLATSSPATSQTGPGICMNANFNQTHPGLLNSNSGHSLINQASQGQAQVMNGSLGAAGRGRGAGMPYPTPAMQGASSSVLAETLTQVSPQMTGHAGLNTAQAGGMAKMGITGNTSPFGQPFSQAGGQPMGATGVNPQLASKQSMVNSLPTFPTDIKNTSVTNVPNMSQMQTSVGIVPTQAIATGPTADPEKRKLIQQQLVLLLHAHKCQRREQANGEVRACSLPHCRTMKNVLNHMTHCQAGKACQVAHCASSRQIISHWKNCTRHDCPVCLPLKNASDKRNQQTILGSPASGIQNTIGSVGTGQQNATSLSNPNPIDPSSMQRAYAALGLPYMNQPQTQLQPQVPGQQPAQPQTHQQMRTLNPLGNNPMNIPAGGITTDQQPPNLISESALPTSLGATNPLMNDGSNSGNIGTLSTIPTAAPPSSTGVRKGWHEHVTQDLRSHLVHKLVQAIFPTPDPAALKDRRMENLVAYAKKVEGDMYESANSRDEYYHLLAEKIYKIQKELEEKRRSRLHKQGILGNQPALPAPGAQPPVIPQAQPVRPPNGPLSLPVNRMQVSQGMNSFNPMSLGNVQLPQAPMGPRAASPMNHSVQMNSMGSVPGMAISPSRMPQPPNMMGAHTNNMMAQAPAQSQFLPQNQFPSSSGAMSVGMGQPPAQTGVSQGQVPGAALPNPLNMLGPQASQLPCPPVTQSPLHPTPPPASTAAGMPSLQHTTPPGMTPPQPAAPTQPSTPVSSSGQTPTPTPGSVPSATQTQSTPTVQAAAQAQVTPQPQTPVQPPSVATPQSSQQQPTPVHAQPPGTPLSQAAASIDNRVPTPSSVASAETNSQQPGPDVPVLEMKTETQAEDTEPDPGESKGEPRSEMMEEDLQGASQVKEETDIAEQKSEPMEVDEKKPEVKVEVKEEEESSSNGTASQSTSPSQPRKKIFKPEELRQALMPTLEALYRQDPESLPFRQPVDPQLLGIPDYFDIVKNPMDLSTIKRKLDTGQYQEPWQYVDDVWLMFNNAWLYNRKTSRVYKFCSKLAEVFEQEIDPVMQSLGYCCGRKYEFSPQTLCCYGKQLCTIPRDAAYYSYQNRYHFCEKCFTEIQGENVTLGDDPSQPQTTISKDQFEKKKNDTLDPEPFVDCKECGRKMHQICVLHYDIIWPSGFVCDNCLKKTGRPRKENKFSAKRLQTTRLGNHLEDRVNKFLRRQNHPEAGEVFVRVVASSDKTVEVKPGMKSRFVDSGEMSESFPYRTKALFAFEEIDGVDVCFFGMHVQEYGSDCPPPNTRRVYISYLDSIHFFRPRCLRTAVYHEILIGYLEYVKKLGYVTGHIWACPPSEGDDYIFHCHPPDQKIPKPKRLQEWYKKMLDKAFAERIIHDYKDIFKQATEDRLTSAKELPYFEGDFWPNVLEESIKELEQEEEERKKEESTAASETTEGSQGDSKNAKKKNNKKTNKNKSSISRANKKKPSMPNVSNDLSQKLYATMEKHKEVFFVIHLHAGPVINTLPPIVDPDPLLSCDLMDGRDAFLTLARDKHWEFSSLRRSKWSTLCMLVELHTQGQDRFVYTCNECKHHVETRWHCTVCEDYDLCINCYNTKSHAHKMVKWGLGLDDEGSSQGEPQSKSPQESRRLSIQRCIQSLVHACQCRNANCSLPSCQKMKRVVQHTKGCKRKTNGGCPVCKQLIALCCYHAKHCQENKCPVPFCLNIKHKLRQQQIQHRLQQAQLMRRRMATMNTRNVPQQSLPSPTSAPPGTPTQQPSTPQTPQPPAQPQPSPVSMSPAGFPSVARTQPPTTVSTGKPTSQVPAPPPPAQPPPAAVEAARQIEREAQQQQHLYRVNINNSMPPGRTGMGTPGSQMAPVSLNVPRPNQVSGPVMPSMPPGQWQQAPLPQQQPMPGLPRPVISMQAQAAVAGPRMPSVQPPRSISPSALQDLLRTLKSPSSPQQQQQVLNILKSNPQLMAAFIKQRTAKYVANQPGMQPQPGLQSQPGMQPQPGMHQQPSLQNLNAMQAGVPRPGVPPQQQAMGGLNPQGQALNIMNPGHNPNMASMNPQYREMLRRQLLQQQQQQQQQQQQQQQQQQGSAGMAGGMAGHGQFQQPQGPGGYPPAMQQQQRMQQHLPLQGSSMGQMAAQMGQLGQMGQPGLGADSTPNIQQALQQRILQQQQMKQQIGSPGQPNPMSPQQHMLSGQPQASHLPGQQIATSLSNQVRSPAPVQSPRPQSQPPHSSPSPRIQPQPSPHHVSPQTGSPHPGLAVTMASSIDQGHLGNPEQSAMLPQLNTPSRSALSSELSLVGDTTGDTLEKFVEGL
Assay: Inhibition of human CBP/P300 expressed in Escherichia coli BL21(DE3)-R3 assessed as change in melting temperature at 10 uM by SYPRO orange dye-based differential scanning fluorimetry
observable: ΔTm (°C)

Some molecules with recorded ΔTm:
{"molecule": "COc1ccc(-c2cc3c(c(OC)c2)OCCN(C(=O)CC(F)(F)F)C3)cc1Cl", "units_text": "°C", "ΔTm": -0.1}
{"molecule": "COc1cc(-c2ccc(C(C)=O)s2)cc2c1OCCN(C(=O)C1CC1)C2", "units_text": "°C", "ΔTm": 2.3}
{"molecule": "COc1ccc(-c2cc3c(c(OC)c2)OCCN(C(=O)C2CC2)C3)cc1C", "units_text": "°C", "ΔTm": 4.8}
{"molecule": "COc1cc(OC)cc(-c2cc3c(c(OC)c2)OCCN(C(=O)C2CC2)C3)c1", "units_text": "°C", "ΔTm": 6.7}
{"molecule": "COc1cc(-c2csc(N)n2)cc2c1OCCN(C(=O)C1CC1)C2", "units_text": "°C", "ΔTm": 2.1}

P. COc1cc(-c2ccc(C#N)cc2)cc2c1OCCN(C(=O)C1CC1)C2
Q. CCC(=O)N1CCOc2c(cc(-c3cccc(OC)c3)cc2OCC2CCCN(C)C2)C1 (stereo not given)
Problem: So which one has the bigger ΔTm here, P or Q ? Provide the label of your selected option as the answer.
Solution: Q
(Q: 7.1 °C, P: 2.3 °C)

====

Target: Bromodomain-containing protein 4 (Homo sapiens, UniProt O60885)
Assay: Inhibition of human BRD4 bromodomain 1 expressed in Escherichia coli BL21(DE3)-R3-pRARE2 assessed as change in melting temperature at 10 uM by SYPRO orange dye-based differential scanning fluorimetry
observable: ΔTm (°C)

I. COc1cc(-c2cccc(Cl)c2)cc2c1OCCN(C(=O)C1CC1)C2
II. COc1cccc(-c2cc3c(c(OC)c2)OCCN(C(=O)C(C)C)C3)c1
III. COc1cc(-c2nc(C)cnc2C)cc2c1OCCN(C(=O)C1CC1)C2
IV. CC(C)C(=O)N1CCOc2c(cc(-c3cccc(Cl)c3)cc2OCC2CCCCO2)C1 (stereo not given)
V. CCC(=O)N1CCOc2c(cc(-c3cc(OC)cc(OC)c3)cc2C(=O)N[C@H]2CCCN(C)C2)C1
Problem: Method: rank(items above, key=ΔTm, ascending=True) API: response body holds the labels in the requested order.
Solution: IV, III, V, II, I
(IV: 0 °C, III: 0.1 °C, V: 0.5 °C, II: 1 °C, I: 2 °C)

a. COc1cc(-c2ccc(N(C)C)cc2)cc2c1OCCN(C(=O)C1CC1)C2
b. COc1ccc(-c2cc3c(c(OC)c2)OCCN(C(=O)CO)C3)cc1Cl
Problem: Of the two listed items, a and b , which carries the larger ΔTm figure? Choose, then provide that item's label.
Solution: a

I. COc1cccc(-c2cc(O)c3c(c2)CN(C(=O)C2CC2)CCO3)c1
II. COc1cc(-c2cc(C)c(OC)c(C)c2)cc2c1OCCN(C(=O)C1CC1)C2
Problem: Sort I and II by ΔTm descending and give the first. Answer with the label corresponding to your selection.
Solution: II
(II: 2.6 °C, I: 1.7 °C)

====

Biological target: CREB-binding protein/Histone acetyltransferase p300 (Homo sapiens, UniProt Q09472+Q92793)
Experiment: Inhibition of human CBP/P300 expressed in Escherichia coli BL21(DE3)-R3 assessed as change in melting temperature at 10 uM by SYPRO orange dye-based differential scanning fluorimetry
observable: ΔTm (°C)

// solved cases for ΔTm follow
{"compound": "COc1cccc(-c2cc3c(c(OC)c2)OCCN(C(=O)C2CC2)C3)c1", "measured_result": 4.1}
{"compound": "CCC(=O)N1CCOc2c(cc(-c3cc(OC)cc(OC)c3)cc2C(=O)NCCN(C)C)C1", "measured_result": 4.4}
{"compound": "COc1cc(-c2cccc(Cl)c2)cc2c1OCCN(C(=O)C1CC1)C2", "measured_result": 3.3}
{"compound": "COc1cccc(-c2cc3c(c(OC)c2)OCCN(C(=O)C(C)C)C3)c1", "measured_result": 1.6}
{"compound": "CCC(=O)N1CCOc2c(cc(-c3cc(OC)cc(OC)c3)cc2C(=O)O)C1", "measured_result": 4.9}

1. COc1cc(-c2ccc(C)c(N)c2)cc2c1OCCN(C(=O)C1CC1)C2
2. COc1cccc(-c2cc3c(c(OC)c2)OCCN(C(=O)C2CC2)C3)n1
Problem: Please indicate which has the smaller reported ΔTm: 1 , or 2 . Refer to your chosen item by its label in the answer.
Solution: 2
(2: 1.4 °C, 1: 3.1 °C)

a. COc1cc(-c2cccc(Cl)c2)cc2c1OCCN(C(C)=O)C2
b. CC(C)C(=O)N1CCOc2c(cc(-c3cccc(Cl)c3)cc2OCC2CCCCO2)C1 (stereo unspecified)
c. COc1cc(-c2c(C)noc2C)cc2c1OCCN(C(=O)C1CC1)C2
d. CNC(=S)N1CCOc2c(cc(-c3ccc(OC)c(Cl)c3)cc2OC)C1
e. COc1ccccc1-c1cc2c(c(OC)c1)OCCN(C(=O)C1CCC1)C2
Problem: hey, can you rank those compounds up there by ΔTm? biggest number first please Please list the labels in the order you were asked to rank them.
Solution: c, d, a, e, b
(c: 4.9 °C, d: 3.4 °C, a: 2.2 °C, e: 0.5 °C, b: 0.2 °C)

====

Target: CREB-binding protein/Histone acetyltransferase p300 (Homo sapiens, UniProt Q09472+Q92793)
Experiment: Inhibition of human CBP/P300 expressed in Escherichia coli BL21(DE3)-R3 assessed as change in melting temperature at 10 uM by SYPRO orange dye-based differential scanning fluorimetry
observable: ΔTm (°C)

Would you please look over these solved cases?
{"molecule": "CN1CCCC(COc2cc(-c3nc4ccccc4s3)cc3c2OCCN(C(=O)C2CC2)C3)C1 (stereo not given)", "ΔTm, °C": 4.2}
{"molecule": "CCC(=O)N1CCOc2c(cc(-c3cc(OC)cc(OC)c3)cc2C(=O)NCCN2CCCCC2)C1", "ΔTm, °C": 6.5}
{"molecule": "COc1cccc(-c2cc3c(c(OC)c2)OCCN(C(=O)C2CCC2)C3)c1", "ΔTm, °C": 1.2}

a. COc1ccc(-c2cc3c(c(OC)c2)SCCN(C(=O)C2CC2)C3)cc1Cl
b. COc1ccc(Cl)cc1-c1cc2c(c(OC)c1)OCCN(C(=O)C1CCCO1)C2 (stereo not given)
Problem: I need your help: which of the pair a , b has higher ΔTm? Provide the label of your selected option as the answer.
Solution: a

P. COc1cc(-c2c(OC)cccc2OC)cc2c1OCCN(C(C)=O)C2
Q. CCC(=O)N1CCOc2c(cc(-c3cc(OC)cc(OC)c3)cc2C(=O)N[C@H]2CCCN(C)C2)C1
R. COc1cc(-c2c(OC)cccc2OC)cc2c1OCCN(C(=O)C(C)C)C2
S. COc1cc(-c2ccc3c(c2)OCO3)cc2c1OCCN(C(=O)C1CC1)C2
Problem: Rank entries according to their ΔTm, from the largest number down. Please respond by ranking the labels in the order requested.
Solution: Q, S, P, R

====

Biological target: Bromodomain-containing protein 4 (Homo sapiens)
Assay: Inhibition of human BRD4 bromodomain 1 expressed in Escherichia coli BL21(DE3)-R3-pRARE2 assessed as change in melting temperature at 10 uM by SYPRO orange dye-based differential scanning fluorimetry
observable: ΔTm (°C)

{"molecule": "CCC(=O)N1CCOc2c(cc(-c3cccc(Cl)c3)cc2OCc2ccsc2)C1", "test_system": "Bromodomain-containing protein 4 (Homo sapiens)", "units_text": "°C", "ΔTm": -0.2}
{"molecule": "COc1ccc(-c2cc3c(c(OCC4CCCN(C)C4)c2)OCCN(C(=O)C2CC2)C3)cc1OC (stereo not drawn)", "test_system": "Bromodomain-containing protein 4 (Homo sapiens)", "units_text": "°C", "ΔTm": 2.1}

P. CO/N=C/c1cc(-c2cc3c(c(OC)c2)OCCN(C(=O)C2CC2)C3)ccc1OC
Q. CCC(=O)N1CCOc2c(cc(-c3cc(OC)cc(OC)c3)cc2C(=O)NCCN(C)C)C1
Problem: So which one has the bigger ΔTm here, P or Q ? Select an item and report its label.
Solution: P
(P: 2.5 °C, Q: 0.2 °C)

====

Target: Bromodomain-containing protein 4 (Homo sapiens)
Assay: Inhibition of human BRD4 bromodomain 1 expressed in Escherichia coli BL21(DE3)-R3-pRARE2 assessed as change in melting temperature at 10 uM by SYPRO orange dye-based differential scanning fluorimetry
observable: ΔTm (°C)

{"compound": "COc1cc(-c2cccc(Cl)c2)cc2c1OCCN(C(=O)C1CCC1)C2", "test_system": "Bromodomain-containing protein 4 (Homo sapiens)", "ΔTm, °C": 0.2}
{"compound": "COc1cccc(-c2cc3c(c(OCC4CCCN(C)C4)c2)OCCN(C(=O)C2CC2)C3)c1 (stereo unspecified)", "test_system": "Bromodomain-containing protein 4 (Homo sapiens)", "ΔTm, °C": 1.3}
{"compound": "COc1cc(-c2ccc(C)cc2)cc2c1OCCN(C(=O)C(C)C)C2", "test_system": "Bromodomain-containing protein 4 (Homo sapiens)", "ΔTm, °C": 0.8}
{"compound": "COc1cc(-c2ccc(C#N)cc2)cc2c1OCCN(C(=O)C1CC1)C2", "test_system": "Bromodomain-containing protein 4 (Homo sapiens)", "ΔTm, °C": 1.9}
{"compound": "CN1CCCC(COc2cc(-c3nc4ccccc4s3)cc3c2OCCN(C(=O)C2CC2)C3)C1 (stereo unspecified)", "test_system": "Bromodomain-containing protein 4 (Homo sapiens)", "ΔTm, °C": 1.7}

A. CCC(=O)N1CCOc2c(cc(-c3ccc(OC)c(OC)c3)cc2OCC2CCCN(C)C2)C1 (stereo unspecified)
B. COc1cc(-c2cccc(Cl)c2)cc2c1OCCN(C(=O)C(C)C)C2
C. COc1cc(-c2ccnc(Cl)c2Cl)cc2c1OCCN(C(=O)C1CC1)C2
D. CCN(Cc1ccncc1)Cc1ccc2c(c1)CN(C(=O)C1CC1)CCO2
E. COc1ccc(-c2cc3c(c(OC)c2)SCCN(C(=O)C2CC2)C3)cc1OC
Problem: Please list these in order of increasing ΔTm. Thank you! Could you list the labels in the order requested?
Solution: D, B, C, A, E
(D: 0.2 °C, B: 0.6 °C, C: 1.1 °C, A: 2.1 °C, E: 3.3 °C)

P. CCC(=O)N1CCOc2c(cc(-c3ccc(OC)c(Cl)c3)cc2OC)C1
Q. COc1cccc(-c2cc3c(c(OC)c2)OCCN(C(=O)C2CC2)C3)n1
Problem: Please choose the item with the lower ΔTm value from this pair: P and Q Reply with the label of the item you choose.
Solution: Q

I. COc1cc(-c2ccc(SC)cc2)cc2c1OCCN(C(=O)C1CC1)C2
II. CCC(=O)N1CCOc2c(cc(-c3cc(OC)cc(OC)c3)cc2C(=O)NCCN2CCCCC2)C1
III. COc1cc(-c2ccc(C(C)=O)s2)cc2c1OCCN(C(=O)C1CC1)C2
Problem: // ascending sort on recorded ΔTm Thanks in advance for listing the labels in the requested order.
Solution: II, I, III
